# assay_system: T1, P9mSN
# T1 chain: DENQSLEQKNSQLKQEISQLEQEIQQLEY
# procedure_text: two-hybrid library CCNG1;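 further: natural log of median RNA to DNA barcode read ratio; higher means stronger binding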
readout_kind: interaction score

Check out these entries, answers already filled in.
> print(dat)
                                   binder  measured.number
1  DKNEQLKEKISELKEKIEQLKEENQSLEY [P12mSN]            -2.15
2   DKNSELKEEIQQLEEENQQLEEKISELKY [P6mSN]           -0.248

a = DEIQQLEEKNSQLKQEISQLEEKNQELKY [P7mSN]
b = DEIRQLEQENSQLERENQRLEQEIYQLER [P1mSN]
Q) # return whichever of a and b has the smaller interaction score Refer to your chosen item by its label in the answer.
A) b
(b: -2.07, a: -0.424)

Values compiled from paper PMC10397247.
